# Assay Target: HIV-1 RT (Human immunodeficiency virus type 1 group M subtype B, UniProt P04585)
# Construct: HIV-1 Reverse Transcriptase serves, in the HIV-1 viral replication process, as catalyst; purchased Ambion
# Protocol Details: Gel-based single nucleotide incorporation assay by HIV-1 RT (primer-template P1T1)
# Type: biochemical
# Condition Set: 100 μM substrate, 10 min, P1T1 125 nM
Attribute Measured: % of P + 1

{"Smi": "Nc1ncnc2c1ncn2[C@H]1C[C@H](O)[C@@H](COP(=O)(O)N[C@@H](COP(=O)(O)O)C(=O)O)O1", "% of P + 1": "3.1%"}
{"Smi": "Nc1ncnc2c1ncn2[C@H]1C[C@H](O)[C@@H](COP(=O)(O)NCCS(=O)(=O)O)O1", "% of P + 1": "3.5%"}
{"Smi": "Nc1ncnc2c1ncn2[C@H]1C[C@H](O)[C@@H](COP(=O)(O)N[C@@H](CP(=O)(O)O)C(=O)O)O1", "% of P + 1": "94.8%"}

Which measured % of P + 1 value corresponds to Nc1ncnc2c1ncn2[C@H]1C[C@H](O)[C@@H](COP(=O)(O)N[C@@H](CS(=O)(=O)O)C(=O)O)O1 ?
7.7%

###

Measured % of P + 1, listed per entry for reference.
# Assay Target: HIV-1 RT (Human immunodeficiency virus type 1 group M subtype B, UniProt P04585)
# Construct: HIV-1 Reverse Transcriptase serves, in the HIV-1 viral replication process, as catalyst; purchased Ambion
# Protocol Details: Gel-based single nucleotide incorporation assay by HIV-1 RT (primer-template P1T1)
# Format: biochemical
# Condition Set: 1 mM substrate, 60 min, P1T1 125 nM
Write down the numeric answer in % and omit the unit.

{"Smi": "Nc1ncnc2c1ncn2[C@H]1C[C@H](O)[C@@H](COP(=O)(O)NCCS(=O)(=O)O)O1", "Value": 54.7}
{"Smi": "Nc1ncnc2c1ncn2[C@H]1C[C@H](O)[C@@H](COP(=O)(O)N[C@@H](COS(=O)(=O)O)C(=O)O)O1", "Value": 8.1}
{"Smi": "Nc1ncnc2c1ncn2[C@H]1C[C@H](O)[C@@H](COP(=O)(O)N[C@@H](CP(=O)(O)O)C(=O)O)O1", "Value": 76.3}
{"Smi": "Nc1ncnc2c1ncn2[C@H]1C[C@H](O)[C@@H](COP(=O)(O)N[C@@H](COP(=O)(O)O)C(=O)O)O1", "Value": 19.4}

For the next question, use this compound.
Please give the measured % of P + 1 for this compound: Nc1ncnc2c1ncn2[C@H]1C[C@H](O)[C@@H](COP(=O)(O)N[C@@H](CS(=O)(=O)O)C(=O)O)O1
63.1

###

Readings of % of P + 1 for the listed compounds
# Assay Target: HIV-1 RT (Human immunodeficiency virus type 1 group M subtype B, UniProt P04585)
# Construct: HIV-1 Reverse Transcriptase serves, in the HIV-1 viral replication process, as catalyst; purchased Ambion
# Protocol Details: Gel-based single nucleotide incorporation assay by HIV-1 RT (primer-template P1T1)
# Type: biochemical
# Condition Set: 100 μM substrate, 120 min, P1T1 125 nM
Quick note: unit goes after the number.

Worked set:
{"Compound": "Nc1ncnc2c1ncn2[C@H]1C[C@H](O)[C@@H](COP(=O)(O)N[C@@H](CS(=O)(=O)O)C(=O)O)O1 [Compound 2]", "Assay Target": "HIV-1 RT (Human immunodeficiency virus type 1 group M subtype B, UniProt P04585)", "Value": "9.1%"}
{"Compound": "Nc1ncnc2c1ncn2[C@H]1C[C@H](O)[C@@H](COP(=O)(O)NCCS(=O)(=O)O)O1 [Compound 1]", "Assay Target": "HIV-1 RT (Human immunodeficiency virus type 1 group M subtype B, UniProt P04585)", "Value": "7.2%"}
{"Compound": "Nc1ncnc2c1ncn2[C@H]1C[C@H](O)[C@@H](COP(=O)(O)N[C@@H](CP(=O)(O)O)C(=O)O)O1 [Compound 3]", "Assay Target": "HIV-1 RT (Human immunodeficiency virus type 1 group M subtype B, UniProt P04585)", "Value": "97.5%"}

Now for the compound whose % of P + 1 we want.
Find the measured % of P + 1: item Nc1ncnc2c1ncn2[C@H]1C[C@H](O)[C@@H](COP(=O)(O)N[C@@H](COP(=O)(O)O)C(=O)O)O1 [Compound 5] , target or system HIV-1 RT (Human immunodeficiency virus type 1 group M subtype B, UniProt P04585).
5.2%

These data points were gathered from patent US20120245029A1.
